Data provenance: ChEMBL document CHEMBL1152182

Molecular target: UniProt P08684
Sequence (P08684 whole entry): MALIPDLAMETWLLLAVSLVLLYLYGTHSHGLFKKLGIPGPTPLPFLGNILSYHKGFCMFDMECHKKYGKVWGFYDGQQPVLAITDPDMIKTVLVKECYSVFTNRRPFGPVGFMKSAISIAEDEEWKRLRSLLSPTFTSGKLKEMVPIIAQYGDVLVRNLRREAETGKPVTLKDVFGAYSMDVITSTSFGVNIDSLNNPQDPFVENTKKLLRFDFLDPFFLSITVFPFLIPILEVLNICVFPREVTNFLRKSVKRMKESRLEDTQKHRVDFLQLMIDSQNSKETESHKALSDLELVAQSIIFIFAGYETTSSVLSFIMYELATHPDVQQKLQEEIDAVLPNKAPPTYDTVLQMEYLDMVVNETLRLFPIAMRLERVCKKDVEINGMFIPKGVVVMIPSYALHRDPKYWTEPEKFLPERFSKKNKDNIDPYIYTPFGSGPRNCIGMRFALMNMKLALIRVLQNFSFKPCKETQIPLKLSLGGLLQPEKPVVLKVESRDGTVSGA
Assay: Inhibition of human CYP3A4 using 7-benzyloxy-4-trifluoromethylcoumarin as substrate
Assay type: ADME

lineNotation	systemName	unitsLabel	IC50
O=C(/C=C/c1cc(F)cc(F)c1)N1CCC([C@@H](CO)N2CCC(c3c[nH]c4ncccc34)CC2)CC1	UniProt P08684	µM	25.2

====

Test: Cmax in rat at 10 mg/kg, po
Assay type: ADME, organism-based
Set-up: dose 10 mg/kg, route oral
Conditions: in vivo
endpointLabel: Cmax (ng/mL)

lineNotation	measuredValue
O=C(/C=C/c1cc(F)cc(F)c1)N1CCC([C@@H](CO)N2CCC(c3c[nH]c4ncccc34)CC2)CC1	341

====

Target: Cytochrome P450 2D6 (Homo sapiens)
Sequence (P10635 whole entry): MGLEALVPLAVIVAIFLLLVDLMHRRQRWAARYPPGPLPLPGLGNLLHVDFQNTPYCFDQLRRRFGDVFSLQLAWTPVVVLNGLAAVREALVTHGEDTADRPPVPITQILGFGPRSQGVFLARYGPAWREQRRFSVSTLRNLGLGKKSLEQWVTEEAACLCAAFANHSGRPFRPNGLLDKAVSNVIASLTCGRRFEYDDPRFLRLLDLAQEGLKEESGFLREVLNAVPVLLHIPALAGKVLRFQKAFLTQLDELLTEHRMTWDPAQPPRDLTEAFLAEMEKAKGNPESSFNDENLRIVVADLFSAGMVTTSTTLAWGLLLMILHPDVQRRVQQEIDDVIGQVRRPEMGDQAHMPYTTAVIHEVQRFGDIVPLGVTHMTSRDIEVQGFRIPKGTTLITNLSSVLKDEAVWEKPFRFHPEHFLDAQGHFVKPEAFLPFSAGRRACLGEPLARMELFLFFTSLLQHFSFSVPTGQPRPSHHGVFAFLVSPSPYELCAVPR
pIC50: −log10 of the molar value.

lineNotation	pIC50
O=C(/C=C/c1cc(F)cc(F)c1)N1CCC([C@@H](CO)N2CCC(c3c[nH]c4ncccc34)CC2)CC1	4.88
